- experimental_target: DRB1*1501 (Homo sapiens, UniProt P01903+P01911)
- test: biochemical
- Assay type: binding
No end group written: not given here.
property: log10(IC50) (log10 of the value in µM)

polymer_sequence: LSQVKIPKTITVSTG [Peptide 89.0158]
measurement: 0.28
//
polymer_sequence: DSDIAYYYAQLADSN [Peptide 89.0071]
measurement: -1.89
//
polymer_sequence: LKTIIKPHCMYYHMQ [Peptide 89.0119]
measurement: 1.24
//
polymer_sequence: RLNVCQDKILTHYEN [Peptide 90.0160]
measurement: 0.58
//
polymer_sequence: GQVIVCPASVSSNEV [Peptide 90.0016]
measurement: -0.34
//
polymer_sequence: LKAICIEKQSRAAKR [Peptide 90.0032]
measurement: 0.31
//
polymer_sequence: LMQLKCPPLLITSNI [Peptide 89.0057]
measurement: -0.80
//
polymer_sequence: EYVLDLYPEPTDLYC [Peptide 1543.12]
measurement: 1.11
//
polymer_sequence: YRHYQYSLYGKTLEE [Peptide 1543.58]
measurement: 0.46
//
polymer_sequence: NCILLYGPANTGKSY [Peptide 89.0087]
measurement: -1.18
//
polymer_sequence: IIHLKGDKNSLKCLR [Peptide 90.0218]
measurement: -0.86
//
polymer_sequence: ESDMAFEYALLADSN [Peptide 90.0055]
measurement: -0.37
//
polymer_sequence: EDEIDTDLDGFIDDS [Peptide 90.0126]
measurement: -0.57
//
polymer_sequence: PMCMMIEPPKLRSTA [Peptide 90.0034]
measurement: 0.52
//
polymer_sequence: IYIIEEDTCTMVTGK [Peptide 90.0204]
measurement: 1.27
//
polymer_sequence: IVHLKGDPNSLKCLR [Peptide 90.0255]
measurement: 0.89
//
polymer_sequence: RETIEKLLSKLLCVS [Peptide 89.0006]
measurement: -0.63
//
polymer_sequence: TPEWIDRLTVLQHSF [Peptide 89.0069]
measurement: 0.58
//
polymer_sequence: ESVFSSDEISFAGIV [Peptide 90.0195]
measurement: 0.30
//
polymer_sequence: VEFMSFLTALKRFLQ [Peptide 89.0015]
measurement: 0.26
//
polymer_sequence: RYRFQKYKTLFVDVT [Peptide 90.0019]
measurement: -0.23
//
polymer_sequence: TTIYNNEEWTLRDTC [Peptide 90.0232]
measurement: 1.01
//
polymer_sequence: LYGVSFMELIRPFQS [Peptide 89.0041]
measurement: 0.19
//
polymer_sequence: LIRMECAIMYTARQM [Peptide 90.0022]
measurement: 0.17
//
polymer_sequence: DWVMAIFGVNPTVAE [Peptide 89.0079]
measurement: -1.59
//
polymer_sequence: FQVIELQMALETLSK [Peptide 89.0182]
measurement: 1.15
//
polymer_sequence: KERHVNANKRFHNIM [Peptide 1543.59]
measurement: 1.11
//
polymer_sequence: PEWIQRLTIIQHGID [Peptide 89.0031]
measurement: 0.53
